System: NRK
Assay: Effect on morphological reversion in src transformed NRK cells at 100 ug/mL
Format: functional
Settings: Rattus norvegicus
# reported inhibition at 100 µg/mL; entries follow

Known results for molecules:
CCCC[C@@]1(OC(=O)CCC(=O)O)CC[C@]2(CC[C@H](C)[C@@H](C/C=C(C)/C=C/[C@@H](O)[C@@H](C)CCC(=O)O)O2)O[C@H]1/C=C/C(C)=C/C(=O)O [2,3-DIHYDRO-5-EPIREVEROMYCIN A]    50%
CCCC[C@@]1(OCSC)CC[C@]2(CC[C@H](C)[C@@H](C/C=C(C)/C=C/[C@H](O)[C@@H](C)/C=C/C(=O)O)O2)O[C@H]1/C=C/C(C)=C/C(=O)O    > 80%
CCCC[C@@]1(OC(=O)CCC(=O)O)CC[C@]2(CC[C@H](C)[C@@H](CCO)O2)O[C@H]1/C=C/C(C)=C/C(=O)O    < 10%
CC(/C=C/[C@H](O)[C@@H](C)/C=C/C(=O)O)=C\C[C@H]1O[C@]2(CC[C@H](C)[C@H](/C=C/C(C)=C/C(=O)O)O2)CC[C@@H]1C [SPIROFUNGIN B]    < 10%

Note: attention shifts to another entry.
*Q* # query: inhibition at 100 µg/mL of entry CCCC[C@@]1(OC)CC[C@]2(CC[C@H](C)[C@@H](C/C=C(C)/C=C/[C@H](O)[C@@H](C)/C=C/C(=O)O)O2)O[C@H]1/C=C/C(C)=C/C(=O)O
*A* > 80%

Data origin, for the record: ChEMBL document CHEMBL1157437
